Test system: DMS153 SCLC cell line
Assay: In vitro cytotoxicity, low throughput MTS assay, DMS153
Assay type: cell-based
Details: Homo sapiens, DMS-153, TP53 c.463A > C, read-out: IC50 (nM), cell line sensitivity to volasertib

Compound	IC50, nM
CC[C@@H]1C(=O)N(C)c2cnc(Nc3ccc(C(=O)N[C@H]4CC[C@H](N5CCN(CC6CC6)CC5)CC4)cc3OC)nc2N1C(C)C [volasertib]	0.672

====

System: panel of SCLC cell lines (DMS53, DMS114, DMS153, H146, H209, H69, H128, H187, H526)
Assay: Agnostic cytotoxicity screening of targeted agents in panel of SCLC cell lines (MTS assay)
Conditions: read-out: mean IC50 concentration, less sensitive SCLC cell lines
pIC50: −log10 of the molar value.

Molecule	pIC50
CC[C@@H]1C(=O)N(C)c2cnc(Nc3ccc(C(=O)N[C@H]4CC[C@H](N5CCN(CC6CC6)CC5)CC4)cc3OC)nc2N1C(C)C [volasertib]	9.60
